Tested on: Colletotrichum gloeosporioides
Assay: Fungitoxicity against Colletotrichum gloeosporioides assessed as mycelial growth inhibition by poisoned food technique
Assay type: functional, organism-based
Conditions: read-out: pEC50 (converted)
Give measured EC50 for each item. Keep answers brief.

- COMPOUND STRUCTURE STRING: "C=C[C@H](O)CCCCC"
  EC50: "10 mM"
- COMPOUND STRUCTURE STRING: "CCCCCCCCCCCCCCCCO"
  EC50: "> 5.25 mM"

Below: the item to evaluate.
Lab note: CCCCCCCCCCCCCCCCCCO gave EC50 of > 1.26 mM
